pIC50: −log10 of the molar value.
A compilation of published pIC50 results with USP19 (Homo sapiens (Human)).
Sequence (O94966 whole entry): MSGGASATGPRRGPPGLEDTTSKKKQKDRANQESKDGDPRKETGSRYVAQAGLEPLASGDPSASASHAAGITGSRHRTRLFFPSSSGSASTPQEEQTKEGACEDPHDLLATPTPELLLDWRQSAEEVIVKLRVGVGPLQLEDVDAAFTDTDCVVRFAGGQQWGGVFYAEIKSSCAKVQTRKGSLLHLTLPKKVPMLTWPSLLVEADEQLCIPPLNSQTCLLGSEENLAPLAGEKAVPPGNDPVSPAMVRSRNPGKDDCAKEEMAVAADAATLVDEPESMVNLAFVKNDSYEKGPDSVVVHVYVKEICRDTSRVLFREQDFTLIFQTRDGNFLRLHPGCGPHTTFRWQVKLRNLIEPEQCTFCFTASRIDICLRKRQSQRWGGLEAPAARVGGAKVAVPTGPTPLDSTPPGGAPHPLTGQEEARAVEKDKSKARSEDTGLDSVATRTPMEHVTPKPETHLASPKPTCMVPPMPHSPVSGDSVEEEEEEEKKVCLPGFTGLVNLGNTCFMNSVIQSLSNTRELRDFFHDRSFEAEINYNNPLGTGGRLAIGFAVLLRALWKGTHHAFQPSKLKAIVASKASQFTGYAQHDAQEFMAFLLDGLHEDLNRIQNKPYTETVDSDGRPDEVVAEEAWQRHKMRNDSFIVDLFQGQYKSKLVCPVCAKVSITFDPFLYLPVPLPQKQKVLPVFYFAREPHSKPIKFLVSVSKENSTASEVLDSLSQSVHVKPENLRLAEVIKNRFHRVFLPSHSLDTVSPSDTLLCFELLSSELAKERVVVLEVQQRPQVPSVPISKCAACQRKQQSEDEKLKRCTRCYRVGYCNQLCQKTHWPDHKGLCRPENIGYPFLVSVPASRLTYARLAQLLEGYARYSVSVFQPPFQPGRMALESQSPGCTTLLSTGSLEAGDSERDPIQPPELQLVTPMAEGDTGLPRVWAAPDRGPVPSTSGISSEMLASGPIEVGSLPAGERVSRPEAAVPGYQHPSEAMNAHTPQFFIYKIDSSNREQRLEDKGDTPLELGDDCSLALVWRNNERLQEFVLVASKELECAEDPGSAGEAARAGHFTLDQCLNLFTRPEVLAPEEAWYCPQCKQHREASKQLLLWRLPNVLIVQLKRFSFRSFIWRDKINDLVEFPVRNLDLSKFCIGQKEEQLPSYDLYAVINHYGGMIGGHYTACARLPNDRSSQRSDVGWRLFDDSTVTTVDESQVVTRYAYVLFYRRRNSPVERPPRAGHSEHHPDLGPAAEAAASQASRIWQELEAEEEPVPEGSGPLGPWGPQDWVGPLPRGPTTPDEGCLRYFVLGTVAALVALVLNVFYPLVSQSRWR

>>> recorded_result("COc1cc(=O)n(C[C@]2(O)CCN(C(=O)N3CCNC[C@H]3c3ccccc3)CC23CCCC3)cn1")
"> 6.30"
>>> recorded_result("O=C(N1CCC(O)(Cn2cnc(-c3ccccc3)cc2=O)C2(CCCC2)C1)N1CCOC2CC21 (stereo not drawn)")
"4.30 to 5.30"
>>> recorded_result("CC(C)CC(C)C(=O)N1CCC(O)(Cn2cc(C(=O)N(C)C)c(-c3ccccc3)cc2=O)C2(CCCC2)C1 (stereo not drawn)")
"> 6.30"
>>> recorded_result("CCC(CC1CCCCC1)C(=O)N1CCC(O)(Cn2cnc(-c3ccccc3F)cc2=O)C(C)(C)C1 (stereo not drawn)")
"5.30 to 6.30"
>>> recorded_result("O=C(N1CCC(O)(Cn2cnc(-c3ccccc3)cc2=O)C2(CCCCC2)C1)N1CCOC[C@H]1c1ccccc1 (stereo partly drawn)")
"> 6.30"

Query CC(C1CC1)N(C)C(=O)N1CCC(O)(Cn2cnc(-c3ccccc3)cc2=O)C2(CCCC2)C1 (stereo not drawn) on USP19 (Homo sapiens (Human)); pIC50 returned: 4.30 to 5.30

Query C[C@H](CC1CCCCC1)C(=O)N1CCC(O)(Cn2cc(C(=O)N3CCOCC3)c(-c3ccccc3)cc2=O)C(C)(C)C1 (stereo partly drawn) on USP19 (Homo sapiens (Human)); pIC50 returned: > 6.30

Query `O=C(NCC1(F)CC1)N1CC[C@@](O)(Cn2cnc(-c3ccccc3)cc2=O)C2(CCCC2)C1` on USP19 (Homo sapiens (Human)); pIC50 returned: 5.30 to 6.30

Query `O=C(NCC1CC(F)(F)C1)N1CC[C@@](O)(Cn2cnc(-c3ccccc3)cc2=O)C2(CCCC2)C1` on USP19 (Homo sapiens (Human)); pIC50 returned: > 6.30

Query `O=C(N1CC[C@@](O)(Cn2cnc(-c3ccccc3)cc2=O)C2(CCCC2)C1)N1CCS(=O)(=O)C[C@H]1c1cc(F)ccc1F` on USP19 (Homo sapiens (Human)); pIC50 returned: > 6.30
